# PROTOCOL DETAILS: MRP1 drug-resistance reversers in H69AR cells – cell-based, doxorubicin co-treatment, pilot screen (AID 601)
# ASSAY CONDITIONS: H69AR cells, CellTiter-Glo, 72 h; compound alone cytotoxicity; at 10 µM
Please assign not met whenever viability is at or above 90%, and met whenever it is below.

COMPOUND: Cc1ccc(C(=O)CC2(O)C(=O)N(C)c3ccc(Br)cc32)c(C)c1 (centres undefined)
CATEGORY: met
--
COMPOUND: CC(C)OC(=O)c1ccc(OC(=O)c2cccnc2)cc1
CATEGORY: not met
--
COMPOUND: CCOc1ccc(N2CC(C(=O)Nc3ccccc3OC)CC2=O)cc1 (centres undefined)
CATEGORY: not met
--
COMPOUND: Cc1ccc(-c2oc3ccccc3c(=O)c2O)cc1
CATEGORY: met
--
COMPOUND: COc1ccc(C(c2sc3nc(C)nn3c2O)N2CCCCC2)cc1 (centres undefined)
CATEGORY: met
--
COMPOUND: Cc1nnc(SCC(=O)Nc2ccc3c4c(cccc24)CC3)n1C
CATEGORY: met
--
COMPOUND: CC1CCCN(C(=O)CN2C(=O)c3ccccc3C2=O)C1 (centres undefined)
CATEGORY: met
--
COMPOUND: S=c1[nH]nc(-c2ccccc2)n1C1C=CCCC1 (centres undefined)
CATEGORY: met
--
COMPOUND: CC(=O)c1cc2c(cc1NC(=O)CN1CCN(C(=O)c3ccco3)CC1)OCO2
CATEGORY: met
--
COMPOUND: O=C(CCCn1c(=O)c2sccc2n(Cc2cc(=O)n3ccccc3n2)c1=O)NCc1ccco1
CATEGORY: met
--
COMPOUND: CCOc1ccccc1C(=O)Nc1nnc(CC)s1
CATEGORY: not met
--
COMPOUND: O=C(Nc1ccccc1)C1=C(O)CC(c2ccoc2)CC1=Nc1ccccc1 (centres undefined)
CATEGORY: met
--
COMPOUND: COc1ccc(NC(=O)NCCN2C(=O)C3C4C=CC(C4)C3C2=O)cc1 (centres undefined)
CATEGORY: not met

----------
# PROTOCOL DETAILS: MRP1 drug-resistance reversers in H69AR cells – cell-based, doxorubicin co-treatment, pilot screen (AID 601)
# ASSAY CONDITIONS: H69AR cells, CellTiter-Glo, 72 h; compound alone cytotoxicity; at 10 µM
Entries and their viability

MOLECULE: C=CCNC(=O)CSc1nc2sc(C)c(C)c2c(=O)[nH]1
viability: 78.2%
//
MOLECULE: Clc1cccc(-c2nnc(-c3ccccc3)o2)c1
viability: 76.7%
//
MOLECULE: CCCSc1nnc(N2C(=O)CC(c3ccsc3)C3=C2CCCC3=O)s1 (stereo unspecified)
viability: 92.7%
//
MOLECULE: CC1(C(=O)NC2CCCCC2)CCC(=O)N1Cc1cccs1 (stereo unspecified)
viability: 85.3%
//
MOLECULE: CCCSc1nnc2nc3c(nn12)c1ccccc1n3C
viability: 89.3%
//
MOLECULE: CCOC(=O)N1CCN(Cc2nc3c(c(=O)n(C)c(=O)n3C)n2Cc2ccc(F)cc2)CC1
viability: 72.6%

----------
# PROTOCOL DETAILS: MRP1 drug-resistance reversers in H69AR cells – cell-based, doxorubicin co-treatment, pilot screen (AID 601)
# ASSAY CONDITIONS: H69AR cells, CellTiter-Glo, 72 h; compound alone cytotoxicity; at 10 µM

COMPOUND: COc1ccc(OC)c(C2C(C(=O)Nc3ccc(F)cc3)=C(C)Nc3nc(CCCO)nn32)c1 (stereo not given)
viability: 101%
//
COMPOUND: COc1ccc(C(=O)NCc2nc3ccccc3[nH]2)cc1OC
viability: 107%
//
COMPOUND: Cc1ccccc1-c1nc(CN2CCC(C(=O)NC3CCN(Cc4ccccc4)CC3)CC2)c(C)o1
viability: 86.3%
//
COMPOUND: Cc1nc2ccccc2c2oc(C(=O)N3CCC(N4CCCCC4)CC3)cc12
viability: 87.4%
//
COMPOUND: CN1CCN(CC(=O)N2c3ccccc3C(C)(c3ccccc3)CC2(C)C)CC1 (stereo not given)
viability: 65.8%
//
COMPOUND: O=C(Nc1ccc2c(c1)OCCO2)NC1CCCCC1
viability: 85.9%
//
COMPOUND: C=C(C)Cn1c(N2CC(C)CC(C)C2)nc2c1c(=O)[nH]c(=O)n2C (stereo not given)
viability: 83.2%
//
COMPOUND: CCCc1nnc(NC(=O)NCCN2C(=O)C3C4C=CC(C4)C3C2=O)s1 (stereo not given)
viability: 97.8%
//
COMPOUND: Cc1ccc(NC(=O)CN(c2ccc3c(c2)OCO3)S(=O)(=O)c2c(C)n[nH]c2C)cc1
viability: 93.1%
//
COMPOUND: Cc1c(NC(=O)c2ccc(Br)o2)c(=O)n(-c2ccccc2)n1C
viability: 91.2%

----------
Entries and their growth inhibition
# PROTOCOL DETAILS: S. cerevisiae growth inhibition in restrictive medium, OD615, pilot screen, restrictive growth control, yeast lifespan reduction project (AID 706);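 also: modified DeaD lifespan yeast strain shifted to restrictive glucose medium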
# ASSAY CONDITIONS: OD615, 48 h, at 10 µM, stronger effect = higher value
MEASUREMENT NAME: growth inhibition (%)

COMPOUND: O=C(O)C1CCCN(S(=O)(=O)c2ccc(Cl)s2)C1 (stereo unspecified)
MEASUREMENT NAME: growth inhibition
RECORDED MEASUREMENT: 7.83
--
COMPOUND: CCC(=O)Nc1ccc(C(=O)n2nc(C)cc2C)cc1
MEASUREMENT NAME: growth inhibition
RECORDED MEASUREMENT: 7.33
--
COMPOUND: COc1ccc(-n2c(Cc3cccn3C)nnc2SCC(=O)Nc2ccccc2)cc1
MEASUREMENT NAME: growth inhibition
RECORDED MEASUREMENT: 15.6
--
COMPOUND: O=C(Nc1nccs1)c1cc(S(=O)(=O)N2CCCCC2)ccc1Cl
MEASUREMENT NAME: growth inhibition
RECORDED MEASUREMENT: -16.1
--
COMPOUND: COc1ccccc1NC(=O)N1CCN(c2ccc3nncn3n2)CC1
MEASUREMENT NAME: growth inhibition
RECORDED MEASUREMENT: 0.79
--
COMPOUND: O=C(NCCN1CCCC1)c1ccc(CS(=O)(=O)c2c(Cl)cccc2Cl)o1
MEASUREMENT NAME: growth inhibition
RECORDED MEASUREMENT: -20.8
--
COMPOUND: Cc1nc2ccc(S(=O)(=O)NC(C(=O)Nc3nccs3)C(C)C)cc2s1 (stereo unspecified)
MEASUREMENT NAME: growth inhibition
RECORDED MEASUREMENT: 2.78
--
COMPOUND: Cc1ccc(OCC(O)CN2C(=O)NC(C)(C)C2=O)cc1C (stereo unspecified)
MEASUREMENT NAME: growth inhibition
RECORDED MEASUREMENT: -19.3
--
COMPOUND: COc1ccc(C(C(=O)NC2CCCCC2)N2CCC3(CC2)OCCO3)cc1 (stereo unspecified)
MEASUREMENT NAME: growth inhibition
RECORDED MEASUREMENT: -6.88
--
COMPOUND: NC(=O)CSc1ncnc2c1oc1ccccc12
MEASUREMENT NAME: growth inhibition
RECORDED MEASUREMENT: -9.65
--
COMPOUND: COc1ccc(CNC(=O)CS(=O)Cc2nc(-c3ccc(C)cc3)oc2C)cc1 (stereo unspecified)
MEASUREMENT NAME: growth inhibition
RECORDED MEASUREMENT: 0.735
--
COMPOUND: COCCNC(=O)c1cc(-c2ccccc2OC)on1
MEASUREMENT NAME: growth inhibition
RECORDED MEASUREMENT: 11.4
--
COMPOUND: CCSC1=C(C#N)C(c2ccccc2OC)CC(=O)N1 (stereo unspecified)
MEASUREMENT NAME: growth inhibition
RECORDED MEASUREMENT: 0.71
--
COMPOUND: CCOc1ccc(-c2cc(CCCC(=O)N3CCN(c4ccc(OC)cc4)CC3)no2)cc1
MEASUREMENT NAME: growth inhibition
RECORDED MEASUREMENT: 1.43
--
COMPOUND: CCOC(=O)N1CCN(Cc2nc3c(c(=O)n(C)c(=O)n3C)n2Cc2ccc(F)cc2)CC1
MEASUREMENT NAME: growth inhibition
RECORDED MEASUREMENT: 5.73
--
COMPOUND: CCOc1ccc(-c2nnc3n2N=C(c2ccc(OC)cc2)CS3)cc1
MEASUREMENT NAME: growth inhibition
RECORDED MEASUREMENT: -3.84
--
COMPOUND: Cc1nc2ccccc2c2oc(C(=O)NCCN3CCCCC3C)cc12 (stereo unspecified)
MEASUREMENT NAME: growth inhibition
RECORDED MEASUREMENT: 0.34
--
COMPOUND: COC(=O)CCC(=O)Nc1ccc(OC)cc1
MEASUREMENT NAME: growth inhibition
RECORDED MEASUREMENT: -6.16
--
COMPOUND: O=C1NC(=O)C(CC(=O)N(Cc2ccco2)C2(C(=O)NC3CCCCC3)CCCCC2)N1 (stereo unspecified)
MEASUREMENT NAME: growth inhibition
RECORDED MEASUREMENT: -7.79
--
COMPOUND: Cc1[nH]nc2c1C(=O)CC(C)(C)C2
MEASUREMENT NAME: growth inhibition
RECORDED MEASUREMENT: -3.72
--
COMPOUND: Cc1nnc2n(-c3ccc(Cl)cc3)c(=O)c3c4c(sc3n12)CN(C)CC4
MEASUREMENT NAME: growth inhibition
RECORDED MEASUREMENT: -10.1
--
COMPOUND: CC(=O)NC(CCS(C)(=O)=O)C(=O)Nc1cc(C)on1 (stereo unspecified)
MEASUREMENT NAME: growth inhibition
RECORDED MEASUREMENT: -22.3
--
COMPOUND: CCCn1c(CN2CCN(C(=O)c3ccco3)CC2)nc2c1c(=O)n(C)c(=O)n2C
MEASUREMENT NAME: growth inhibition
RECORDED MEASUREMENT: -25.5
--
COMPOUND: N#CCCN1CCN(S(=O)(=O)c2ccc(S(=O)(=O)NC3CCCCC3)cc2)CC1
MEASUREMENT NAME: growth inhibition
RECORDED MEASUREMENT: -5.03
--
COMPOUND: COc1ccc(-c2cnc(SCC(=O)Nc3ccc4c(c3)OCO4)n2Cc2ccco2)cc1
MEASUREMENT NAME: growth inhibition
RECORDED MEASUREMENT: 10.1
--
COMPOUND: Nc1cccc(-n2nncc2-c2ccc(Cl)cc2)c1
MEASUREMENT NAME: growth inhibition
RECORDED MEASUREMENT: -5.47
--
COMPOUND: O=C(CCn1c(=S)[nH]c2ccccc2c1=O)N1CCOCC1
MEASUREMENT NAME: growth inhibition
RECORDED MEASUREMENT: 9.25
--
COMPOUND: O=C(NCC1CCCO1)C1CCN(S(=O)(=O)c2cccc3cccnc23)CC1 (stereo unspecified)
MEASUREMENT NAME: growth inhibition
RECORDED MEASUREMENT: 12
--
COMPOUND: Cc1ccc(C(=O)Nc2c(C(=O)N3CCOCC3)cnn2-c2ccccc2)cc1
MEASUREMENT NAME: growth inhibition
RECORDED MEASUREMENT: -9.73
--
COMPOUND: Cc1noc(C)c1S(=O)(=O)N1CCN(Cc2ccc3c(c2)OCO3)CC1
MEASUREMENT NAME: growth inhibition
RECORDED MEASUREMENT: 7.12
--
COMPOUND: Cc1ccc(O)c(N=CC2=C(O)c3ccccc3C2=O)c1
MEASUREMENT NAME: growth inhibition
RECORDED MEASUREMENT: 5.53
--
COMPOUND: CCCSc1nc2c(cnn2-c2ccc(C)c(C)c2)c(=O)[nH]1
MEASUREMENT NAME: growth inhibition
RECORDED MEASUREMENT: -3.42
--
COMPOUND: COc1cccc(NC(=O)c2nnn(Cc3ccc(Br)cc3F)c2N)c1
MEASUREMENT NAME: growth inhibition
RECORDED MEASUREMENT: -5.7
--
COMPOUND: COC(=O)C1C2C=CC3(CN(c4cccc(Cl)c4)C(=O)C13)O2 (stereo unspecified)
MEASUREMENT NAME: growth inhibition
RECORDED MEASUREMENT: -8.25
--
COMPOUND: CCOC(=O)/C(C#N)=C1/C=Nc2ccccc2N1
MEASUREMENT NAME: growth inhibition
RECORDED MEASUREMENT: -1.09
--
COMPOUND: CC(C)n1c(SCc2ccccc2F)nc2c1c(=O)n(C)c(=O)n2C
MEASUREMENT NAME: growth inhibition
RECORDED MEASUREMENT: -1.82
--
COMPOUND: COc1ccc(NC(=O)C2CCCN2S(=O)(=O)c2cccc3cccnc23)c(OC)c1 (stereo unspecified)
MEASUREMENT NAME: growth inhibition
RECORDED MEASUREMENT: 95.7
--
COMPOUND: Cc1nnc(N(Cc2ccco2)C(=O)c2cccc(C#N)c2)s1
MEASUREMENT NAME: growth inhibition
RECORDED MEASUREMENT: 6.42
--
COMPOUND: CC(=O)Nc1nnc(SCC(=O)NCCOc2ccccc2)s1
MEASUREMENT NAME: growth inhibition
RECORDED MEASUREMENT: -7.88
--
COMPOUND: CCCSc1nc2c(cnn2-c2ccc(C)cc2)c(=O)[nH]1
MEASUREMENT NAME: growth inhibition
RECORDED MEASUREMENT: 6.35
--
COMPOUND: CC(=O)c1c(OC(=O)c2ccco2)c2ccccc2n1C
MEASUREMENT NAME: growth inhibition
RECORDED MEASUREMENT: -7.23
--
COMPOUND: CCCSc1nc2c(cnn2-c2ccccc2)c(=O)[nH]1
MEASUREMENT NAME: growth inhibition
RECORDED MEASUREMENT: -17.8
--
COMPOUND: CCCn1cc(SCC(=O)Nc2nnc(C)s2)c2ccccc21
MEASUREMENT NAME: growth inhibition
RECORDED MEASUREMENT: 0.865
--
COMPOUND: Cc1cccc(-n2ncc3c(N(CCO)CCO)ncnc32)c1
MEASUREMENT NAME: growth inhibition
RECORDED MEASUREMENT: 0.945
--
COMPOUND: CC(=O)Nc1cccc(NC(=O)c2ccco2)c1
MEASUREMENT NAME: growth inhibition
RECORDED MEASUREMENT: -3.89
--
COMPOUND: Cc1ccccc1NC(=O)C1CCCN(S(=O)(=O)c2cnc[nH]2)C1 (stereo unspecified)
MEASUREMENT NAME: growth inhibition
RECORDED MEASUREMENT: 0.61
